# subject of test: Tyrosine-protein phosphatase non-receptor type 1 (Homo sapiens, UniProt P18031)
# Sequence (P18031 whole entry): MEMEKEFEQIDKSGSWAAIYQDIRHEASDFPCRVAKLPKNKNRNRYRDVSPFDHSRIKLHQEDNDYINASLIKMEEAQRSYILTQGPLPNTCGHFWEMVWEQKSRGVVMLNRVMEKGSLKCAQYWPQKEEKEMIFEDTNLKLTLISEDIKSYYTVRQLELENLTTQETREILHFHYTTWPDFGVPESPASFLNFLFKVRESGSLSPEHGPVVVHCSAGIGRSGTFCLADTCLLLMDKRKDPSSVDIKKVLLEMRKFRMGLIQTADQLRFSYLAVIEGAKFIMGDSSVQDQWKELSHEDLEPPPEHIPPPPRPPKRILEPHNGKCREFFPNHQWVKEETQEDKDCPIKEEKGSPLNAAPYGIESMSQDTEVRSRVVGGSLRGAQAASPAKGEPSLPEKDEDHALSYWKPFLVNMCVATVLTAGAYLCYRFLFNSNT
# test summary: Inhibition of human recombinant PTP1B
IC50 strictly under 8 µM means 1; at 8 µM or over means 0.

Here's what some known entries look like.
C[C@H]1[C@H](C)CC[C@]2(C)CC[C@]3(C(=O)O)C(=CC[C@@H]4[C@@]5(C)CC[C@H](O)C(C)(C)C5CC[C@]43C)[C@H]12 (some centres undefined); 1
CC1(C)[C@@H](O[C@H]2O[C@H](C(=O)O)[C@@H](O)[C@H](O)[C@H]2O[C@@H]2O[C@H](C(=O)O)[C@@H](O)[C@H](O)[C@H]2O)CC[C@]2(C)[C@H]3C(=O)C=C4[C@@H]5C[C@@](C)(C(=O)O)CC[C@]5(C)CC[C@@]4(C)[C@]3(C)CC[C@@H]12; 0
CC1(C)CC[C@]2(C)CC[C@]3(C(=O)O)C(=CC[C@@H]4[C@@]5(C)CCC(=O)C(C)(C)[C@@H]5CC[C@]43C)[C@@H]2C1; 1
CC1(C)CC[C@]2(C)CC[C@]3(C(=O)O)C(=CC[C@@H]4[C@@]5(C)CC[C@@H](O)[C@](C)(CO)C5CC[C@]43C)[C@@H]2C1 (some centres undefined); 0
COC(=O)[C@@]12CC[C@@]3(C)CCC(C)(C)C[C@H]3C1=CC[C@@H]1[C@@]3(C)CC[C@H](O)C(C)(C)C3CC[C@]12C (some centres undefined); 0
CC(=O)O[C@H]1CC[C@@]2(C)C(CC[C@]3(C)[C@@H]2CC=C2[C@@H]4CC(C)(C)CC[C@]4(C)CC[C@]23C(=O)O)C1(C)C (some centres undefined); 0
COC(=O)[C@@]12CCC3C(=CC[C@H]4[C@@]3(C)CCC3C(C)(C)[C@@H](O)CC[C@@]34C)[C@@H]1CC(C)(C)CC2 (some centres undefined); 0
CC1(C)CC[C@]2(C)CC[C@]3(C(=O)O)C(=CC[C@@H]4[C@@]5(C)CC[C@H](O)C(C)(C)C5CC[C@]43C)[C@@H]2C1 (some centres undefined); 1

Read the next record carefully.
Req: # strict comparison: is reported IC50 < 8 µM? input = CC1(C)CC[C@]2(C)CC[C@]3(C(=O)O)C(=CC[C@@H]4[C@@]5(C)CC[C@H](O)C(C)(C)C5[C@H](O)C[C@]43C)[C@@H]2C1 (some centres undefined)
Resp: 0

Sourced from ChEMBL document CHEMBL1147808
